- EXPERIMENTAL TARGET: Xanthine dehydrogenase/oxidase (Bos taurus, UniProt P80457)
- Sequence (P80457 whole entry): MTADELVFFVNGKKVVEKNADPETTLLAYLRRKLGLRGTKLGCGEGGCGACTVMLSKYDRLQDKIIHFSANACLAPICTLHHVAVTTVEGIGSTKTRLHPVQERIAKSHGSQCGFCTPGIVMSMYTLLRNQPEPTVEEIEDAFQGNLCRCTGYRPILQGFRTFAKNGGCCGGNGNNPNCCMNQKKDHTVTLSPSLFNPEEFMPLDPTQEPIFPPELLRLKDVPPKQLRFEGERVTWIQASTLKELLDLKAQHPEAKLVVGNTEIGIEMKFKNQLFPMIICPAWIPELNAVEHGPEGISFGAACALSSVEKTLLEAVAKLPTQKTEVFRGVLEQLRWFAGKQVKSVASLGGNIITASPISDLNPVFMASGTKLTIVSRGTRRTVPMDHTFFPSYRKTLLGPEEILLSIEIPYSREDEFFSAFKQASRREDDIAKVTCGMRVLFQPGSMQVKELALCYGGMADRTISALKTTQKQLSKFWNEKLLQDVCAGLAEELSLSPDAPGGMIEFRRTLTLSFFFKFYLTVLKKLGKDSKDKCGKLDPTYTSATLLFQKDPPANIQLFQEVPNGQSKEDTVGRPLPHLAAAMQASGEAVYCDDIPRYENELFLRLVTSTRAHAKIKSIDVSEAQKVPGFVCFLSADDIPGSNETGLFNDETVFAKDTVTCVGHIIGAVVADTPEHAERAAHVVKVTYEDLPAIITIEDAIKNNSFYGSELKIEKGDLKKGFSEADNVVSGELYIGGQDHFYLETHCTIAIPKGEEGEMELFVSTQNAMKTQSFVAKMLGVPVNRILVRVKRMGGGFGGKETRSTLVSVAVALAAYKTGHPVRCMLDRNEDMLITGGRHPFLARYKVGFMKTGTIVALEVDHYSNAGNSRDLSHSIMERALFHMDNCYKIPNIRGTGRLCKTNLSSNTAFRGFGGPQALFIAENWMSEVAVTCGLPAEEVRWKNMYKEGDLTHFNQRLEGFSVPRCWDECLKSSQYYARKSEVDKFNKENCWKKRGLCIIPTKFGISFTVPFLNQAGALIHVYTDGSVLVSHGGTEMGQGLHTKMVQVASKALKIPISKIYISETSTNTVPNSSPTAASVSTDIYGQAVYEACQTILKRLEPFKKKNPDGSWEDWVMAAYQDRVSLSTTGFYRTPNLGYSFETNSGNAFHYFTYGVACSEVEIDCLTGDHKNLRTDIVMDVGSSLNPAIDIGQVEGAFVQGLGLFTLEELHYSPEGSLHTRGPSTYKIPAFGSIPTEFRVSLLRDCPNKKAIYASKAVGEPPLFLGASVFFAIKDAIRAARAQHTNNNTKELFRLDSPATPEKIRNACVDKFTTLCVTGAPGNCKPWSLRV
- METHOD SUMMARY: Ratio of kcat to km for bovine xanthine oxidase at 25 uM preincubated for 10 mins
- STUDY CONDITIONS: cattle
RESULT TYPE: Kcat/Km (µM⁻¹ s⁻¹)
Numbers only here, please. The scale is µM⁻¹ s⁻¹.

Would you please look over these solved cases?
Oc1ncnc2[nH]ncc12; 0.007
COc1cc(C2Oc3cc([C@H]4Oc5cc(O)cc(O)c5C(=O)[C@@H]4O)ccc3OC2CO)ccc1O (stereo not given in full); 0.07

Query: # query: Kcat/Km of entry O=c1cc(-c2ccc(O)c(O)c2)oc2cc(O)cc(O)c12
Result: 0.05

Query: Would you kindly repeat that for O=c1c(O)c(-c2ccc(O)c(O)c2)oc2cc(O)cc(O)c12 ?
Result: 0.05

Query: Would you kindly repeat that for COc1cc(/C=C/C(=O)CC(=O)/C=C/c2ccc(O)c(OC)c2)ccc1O ?
Result: 3.9
